Tested on: Leptosphaeria nodorum—LEPTNO
Test: Glume Blotch of Wheat, in vivo whole plant, 24 Hour Protectant
Settings: Leptosphaeria; 100 ppm spray, 24 hour protectant, wheat; control of fungal infection vs untreated plants; read-out: LEPTNO in vivo 1 Day Protectant
reportedEndpoint: pest or weed control at 100 ppm

> print(dat)
                                   molecule     result
1  COc1ccnc(C(=O)NC2CCC[C@H]3[C@H]4CC[C@H](C4)[C@@H]23)c1O (some centres unmarked) [Compound 291]  25 to 74%
2  C[C@H]1C2CC([C@H]3CCC[C@@H]23)[C@@H]1NC(=O)c1ncccc1O (some centres unmarked) [Compound 207]      < 25%
3  COc1ccnc(C(=O)NC2CCC[C@H]3CC(CCC=C(C)C)=CC[C@@H]23)c1O (some centres unmarked) [Compound 286]  25 to 74%
4  COc1ccnc(C(=O)N[C@H]2CC3CC2[C@@H](COCc2cccc(C(F)(F)F)c2)C3)c1O (some centres unmarked) [Compound 295]  25 to 74%
5  O=C(NCCc1ccc(Cl)cc1)c1ncccc1O [Compound 233]      < 25%
6  COc1ccnc(C(=O)N[C@H]2CO[C@H](C(C)Cc3ccc(C(C)(C)C)cc3)OC2)c1O (some centres unmarked) [Compound 316]  25 to 74%
7  COc1ccnc(C(=O)NC2C3CSC2CN(Cc2ccccc2)C3)c1O (centres unmarked) [Compound 325]  25 to 74%
8  O=C(N[C@H]1CC2CC1[C@@H]1CCC[C@H]21)c1ncccc1O (some centres unmarked) [Compound 206]      < 25%

* * *

inhibition at 25 ppm values, listed per item
System: Mycosphaerella graminicola (Septoria tritici—SEPTTR)
Assay: In vitro fungal growth inhibition, Mycosphaerella graminicola (SEPTTR)
Format: cell-based
Settings: Zymoseptoria tritici; 25 ppm in the growth medium; read-out: SEPTTR in vitro Growth Inhibition
reportedEndpoint: inhibition at 25 ppm

> print(dat)
                                    compound      reportedendpoint  result
 1  N#Cc1ccc(Oc2cccc(NC(=O)c3nc(Br)ccc3O)c2)cc1  inhibition at 25 ppm   < 80%
 2  COc1ccnc(C(=O)Nc2ccc(Oc3ccnc(C(F)(F)F)c3)cc2)c1O  inhibition at 25 ppm   < 80%
 3  O=C(Nc1ccccc1Oc1ccc(C(F)(F)F)cc1)c1nc(Br)ccc1O  inhibition at 25 ppm   < 80%
 4  Cc1cc(C)c(C(=O)N[C@H]2COC(=O)[C@H](Cc3ccccc3)[C@@H](OC(=O)C(C)C)[C@H](C)OC2=O)c(O)n1  inhibition at 25 ppm   < 80%
 5  Cc1nc(O)c(C(=O)N[C@H]2COC(=O)[C@H](Cc3ccccc3)[C@@H](OC(=O)C(C)C)[C@H](C)OC2=O)nc1C  inhibition at 25 ppm   > 80%
 6  COc1ccnc(C(=O)Nc2ccc(Oc3ccc(C(F)(F)F)cc3)cn2)c1O  inhibition at 25 ppm   > 80%
 7  CC1(C)CC(NC(=O)c2cn(-c3ccccc3)nc2O)CC(C)(C)C1  inhibition at 25 ppm   < 80%
 8  CCOc1ccnc(C(=O)NC2COC(=O)[C@H](Cc3ccccc3)[C@@H](OC(=O)C(C)C)[C@H](C)OC2=O)c1O (stereo partly shown)  inhibition at 25 ppm   > 80%
 9        CC1(C)CC(NC(=O)c2nscc2O)CC(C)(C)C1  inhibition at 25 ppm   > 80%
10  CC(NC(=O)c1ccncc1O)c1ccc(Oc2ccccc2)cc1 (stereo not shown)  inhibition at 25 ppm   < 80%
11  COc1ccnc(C(=O)Nc2ccc(Oc3cc(C(F)(F)F)nc(C(F)(F)F)c3)cc2)c1O  inhibition at 25 ppm   < 80%
12  Cc1ccnc(C(=O)N[C@H]2COC(=O)[C@H](Cc3ccccc3)[C@@H](OC(=O)C(C)C)[C@H](C)OC2=O)c1OC(=O)C(C)C  inhibition at 25 ppm   < 80%
13  O=C(Oc1cccnc1C(=O)NC1CCC(OC(=O)c2ccccc2)CC1)c1ccccc1 (stereo not shown)  inhibition at 25 ppm   < 80%
14  COc1ccc(C(C)NC(=O)c2nc(Br)ccc2O)cc1 (stereo not shown)  inhibition at 25 ppm   < 80%
15  COc1ccnc(C(=O)NC2CC(C)(C)CC(C)(C3CC3)C2)c1OC(C)=O (stereo not shown)  inhibition at 25 ppm   < 80%
16  CCOc1ccnc(C(=O)Nc2ccc(Oc3cccc(C(F)(F)F)c3)cc2)c1O  inhibition at 25 ppm   < 80%

* * *

System: Rhizoctonia solani (RHIZSO)
Assay: microbe, parasite or virus in culture
Format: cell-based
Conditions: Rhizoctonia solani, read-out: RHIZSO in vitro Growth Inhibition
reportedEndpoint: inhibition at 25 ppm

> print(dat)
                                    compound      reportedendpoint  result
 1   COc1ccnc(C(=O)Nc2ccccc2Oc2ccccc2C#N)c1O  inhibition at 25 ppm   < 80%
 2  CCCCC1(C)CC(NC(=O)c2nccc(OC)c2O)CC(C)(C)C1 (stereo not shown)  inhibition at 25 ppm   < 80%
 3  COc1ccnc(C(=O)NC2C3(C)CCC(C3)C2(C)C)c1O (stereo not shown)  inhibition at 25 ppm   > 80%
 4  COc1ccnc(C(=O)N[C@H]2[C@@H](OC(C)=O)O[C@H](COC(C)=O)[C@@H](OC(C)=O)[C@@H]2OC(C)=O)c1O  inhibition at 25 ppm   < 80%
 5  CC(C)C(=O)O[C@H]1[C@H](C)OC(=O)[C@@H](NC(=O)c2cc(O)cnc2O)COC(=O)[C@@H]1Cc1ccccc1  inhibition at 25 ppm   < 80%
 6  COc1ccnc(C(=O)NC2c3ccccc3CC2(C)C)c1O (stereo not shown)  inhibition at 25 ppm   < 80%
 7  COc1ccnc(C(=O)NC2CC(C)(C)C(=O)C(C)(C)C2)c1O  inhibition at 25 ppm   < 80%
 8  C[C@H]1C2CC([C@H]3CCC[C@@H]23)[C@@H]1NC(=O)c1ncccc1O (stereo partly shown)  inhibition at 25 ppm   < 80%
 9  COc1ccnc(C(=O)Nc2ccc(Oc3ccc(C(F)(F)F)cc3)cn2)c1O  inhibition at 25 ppm   > 80%
10  COc1ccnc(C(=O)N[C@H]2C[C@@H](O[Si](C)(C)C(C)(C)C)O[C@@H](C)[C@@H]2OCc2ccccc2)c1O  inhibition at 25 ppm   < 80%
11  COc1ccnc(C(=O)Nc2cccc(Oc3ccccc3Cl)c2)c1O  inhibition at 25 ppm   < 80%
12  COc1ccnc(C(=O)Nc2ccc(NC(=O)c3cccc(C(F)(F)F)c3)cc2)c1OC(C)=O  inhibition at 25 ppm   < 80%
13  COc1ccnc(C(=O)NC2C3CC4C(C3Cl)C42)c1O (stereo not shown)  inhibition at 25 ppm   > 80%
14  COC(=O)C(COC(=O)C(COC(=O)C(C)C)Cc1ccccc1)NC(=O)c1nccc(OC)c1OC(C)=O (stereo not shown)  inhibition at 25 ppm   < 80%
15  COc1ccnc(C(=O)Nc2ccc(Sc3cccc(C(F)(F)F)c3)cc2)c1O  inhibition at 25 ppm   < 80%
16  CSc1nnc(C(=O)N[C@H]2COC(=O)[C@H](Cc3ccccc3)[C@@H](OC(=O)C(C)C)[C@H](C)OC2=O)c(O)n1  inhibition at 25 ppm   < 80%

* * *

System: Erysiphe graminis—ERYSGT
Test: Powdery Mildew of Wheat, in vivo whole plant, 24 Hour Protectant
Conditions: Erysiphe; 100 ppm spray, wheat, 24 hour protectant; control of fungal infection vs untreated plants; read-out: ERYSGT in vivo 1 Day Protectant
reportedEndpoint: pest or weed control at 100 ppm

> print(dat)
                                   molecule                measuredon     result
1  COc1ccnc(C(=O)Nc2ccc(Oc3cccc(C(F)(F)F)c3)cc2)c1O [Compound 424]  Erysiphe graminis—ERYSGT  25 to 74%
2  COc1ccnc(C(=O)Nc2ccc(Nc3cccc(C(F)(F)F)c3)cc2)c1O [Compound 410]  Erysiphe graminis—ERYSGT      < 25%
3  COc1ccnc(C(=O)Nc2cccc(Oc3cccc(C)c3)c2)c1O [Compound 413]  Erysiphe graminis—ERYSGT      < 25%
4  COC(=O)C(COC(=O)C(COC(=O)C(C)C)Cc1ccccc1)NC(=O)c1nccc(OC)c1O (centres unmarked) [Compound 349]  Erysiphe graminis—ERYSGT      < 25%
5  COC(=O)C(Cc1ccc(OCc2ccccc2)cc1)NC(=O)c1nccc(OC)c1O (single isomer, unassigned) [Compound 338]  Erysiphe graminis—ERYSGT      < 25%
6  COc1ccnc(C(=O)Nc2cc(C)c(OC(=O)c3ccccc3)c(C)c2)c1O [Compound 456]  Erysiphe graminis—ERYSGT      < 25%
7  COc1ccnc(C(=O)N[C@H]2COC(=O)[C@H](Cc3ccccc3)[C@@H](OC(=O)C3CCCCC3)[C@H](C)OC2=O)c1O [Compound 392]  Erysiphe graminis—ERYSGT  25 to 74%
8  COc1ccnc(C(=O)Nc2ccc(Oc3ccc(Cl)cc3)cc2)c1O [Compound 443]  Erysiphe graminis—ERYSGT      < 25%

Source of measurements: patent US6706740B2
